meta.source: patent US20230134571A1

biological target: HIV Env of isolate 928-28 (clade AG) (HIV); assay: cell-based or functional assay
QUANTITY_KIND: IC80 (µg/ml) with constrains

PGDM1400 (antibody, V domains shown) VH: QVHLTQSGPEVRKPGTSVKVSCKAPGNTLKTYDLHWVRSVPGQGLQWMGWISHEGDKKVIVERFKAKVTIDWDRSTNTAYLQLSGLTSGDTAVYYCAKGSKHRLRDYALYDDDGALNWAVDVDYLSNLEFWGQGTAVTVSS VL: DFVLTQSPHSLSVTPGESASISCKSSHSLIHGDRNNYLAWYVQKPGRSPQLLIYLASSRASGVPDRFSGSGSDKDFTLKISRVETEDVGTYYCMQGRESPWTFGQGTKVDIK | 0.277 µg/mL
ePGDM13 (antibody, V domains shown) VH: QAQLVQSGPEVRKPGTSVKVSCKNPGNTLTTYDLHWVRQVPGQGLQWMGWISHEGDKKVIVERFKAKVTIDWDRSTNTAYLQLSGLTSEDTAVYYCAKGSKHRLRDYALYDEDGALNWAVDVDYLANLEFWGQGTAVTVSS VL: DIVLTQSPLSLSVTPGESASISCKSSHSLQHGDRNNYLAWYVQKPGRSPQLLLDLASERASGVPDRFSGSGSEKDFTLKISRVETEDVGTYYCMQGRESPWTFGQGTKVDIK | 0.077 µg/mL
ePGDM9 (antibody, V domains shown) VH: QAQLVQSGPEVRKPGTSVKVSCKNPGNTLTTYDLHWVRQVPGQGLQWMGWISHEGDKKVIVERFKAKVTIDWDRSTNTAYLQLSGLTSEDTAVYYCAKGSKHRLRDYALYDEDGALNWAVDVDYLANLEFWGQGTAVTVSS VL: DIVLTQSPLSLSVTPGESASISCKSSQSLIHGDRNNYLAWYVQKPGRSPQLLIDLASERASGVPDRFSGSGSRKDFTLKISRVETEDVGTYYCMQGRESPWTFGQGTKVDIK | 0.108 µg/mL
ePGDM5 (antibody, V domains shown) VH: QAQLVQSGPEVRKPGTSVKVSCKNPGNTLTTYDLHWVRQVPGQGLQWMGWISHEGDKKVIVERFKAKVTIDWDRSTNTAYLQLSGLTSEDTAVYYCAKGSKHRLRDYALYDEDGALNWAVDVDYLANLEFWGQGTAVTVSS VL: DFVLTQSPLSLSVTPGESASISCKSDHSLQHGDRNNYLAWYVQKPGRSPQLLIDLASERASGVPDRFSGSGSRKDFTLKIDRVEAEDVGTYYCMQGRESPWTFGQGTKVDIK | 0.125 µg/mL
